Molecular target: feline FcRn complex (FcRn-α subunit and β-microglobulin) (feline)
Experiment: SPR (Biacore), FcRn on SA chip, pH 6
property_label: Kd (nM)
Reply with just the number (in nM).

[Q] Requested field: Kd. Item: feline IgG1a mutant ID No. 337: S252Y, S428M, S434F, D312H (antibody, part only; not given: Variable domains, not shown: another chain or arm of the molecule) constant: ASTTAPSVFPLAPSCGTTSGATVALACLVLGYFPEPVTVSWNSGALTSGVHTFPAVLQASGLYSLSSMVTVPSSRWLSDTFTCNVAHPPSNTKVDKTVRKTDHPPGPKPCDCPKCPPPEMLGGPSIFIFPPKPKDTLYISRTPEVTCLVVDLGPDDSDVQITWFVDNTQVYTAKTSPREEQFNSTYRVVSVLPILHQHWLKGKEFKCKVNSKSLPSPIERTISKAKGQPHEPQVYVLPPAQEELSRNKVSVTCLIKSFHPPDIAVEWEITGQPEPENNYRTTPPQLDSDGTYFVYSKLSVDRSHWQRGNTYTCSVMHEALHFHHTQKSLTQSPGK
[A] 0.0272

Sourced from patent US20240400708A1
